The origin of these recorded values is DBAASP.

- Tested on: Candida albicans ATCC 10231
metric: MIC (µM)

{"smilesString": "CC(C)C[C@H](NC(=O)[C@H](C)NC(=O)[C@H](CO)NC(=O)[C@H](C)NC(=O)[C@@H](NC(=O)[C@H](CCCCN)NC(=O)[C@H](CCCCN)NC(=O)[C@@H](NC(=O)[C@H](CC(C)C)NC(=O)CNC(=O)[C@H](CC(C)C)NC(=O)[C@H](CC(C)C)NC(=O)[C@H](CC(=O)O)NC(=O)[C@@H](N)Cc1ccccc1)C(C)C)C(C)C)C(N)=O", "number": 100}

----------
- System: Escherichia coli D31

{"smilesString": "CC[C@H](C)[C@H](NC(=O)[C@H](CCCN=C(N)N)NC(=O)[C@@H]1CCCN1C(=O)[C@H](Cc1cnc[nH]1)NC(=O)[C@@H]1CCCN1C(=O)[C@@H]1CCCN1C(=O)[C@H](CCCN=C(N)N)NC(=O)[C@@H]1CCCN1C(=O)[C@H](CCC(N)=O)NC(=O)[C@@H]1CCCN1C(=O)[C@H](CC(C)C)NC(=O)[C@H](Cc1ccc(O)cc1)NC(=O)[C@@H](NC(=O)[C@@H]1CCCN1C(=O)[C@H](CCCN=C(N)N)NC(=O)[C@H](CC(N)=O)NC(=O)[C@H](CC(N)=O)NC(=O)CN)C(C)C)C(N)=O", "MIC": "≥ 60.7 µM"}

----------
A set of compounds tested on Salmonella typhimurium, with measured MIC:
metric: MIC

{"smilesString": "CC[C@H](C)[C@H](NC(=O)[C@H](CCCCN)NC(=O)[C@H](CO)NC(=O)[C@H](Cc1ccccc1)NC(=O)[C@H](CC(C)C)NC(=O)[C@H](CCCCN)NC(=O)[C@H](CCC(=O)O)NC(=O)[C@H](CC(C)C)NC(=O)[C@H](CCCN=C(N)N)NC(=O)[C@H](CCCCN)NC(=O)[C@H](Cc1ccccc1)NC(=O)[C@@H](NC(=O)[C@H](CCCCN)NC(=O)[C@H](CCCCN)NC(=O)[C@H](C)N)C(C)C)C(=O)N[C@@H](Cc1ccccc1)C(=O)N[C@@H](CC(N)=O)C(=O)N[C@@H](Cc1ccccc1)C(=O)N[C@@H](CCCCN)C(N)=O", "result": "0.39 µM"}
{"smilesString": "CC(C)C[C@H](NC(=O)[C@H](CCCN=C(N)N)NC(=O)[C@H](Cc1cnc[nH]1)NC(=O)[C@@H](NC(=O)[C@H](CCCN=C(N)N)NC(=O)CNC(=O)[C@@H](NC(=O)[C@@H]1CCCN1C(=O)[C@H](Cc1ccccc1)NC(=O)[C@H](CCC(N)=O)NC(=O)[C@H](CC(C)C)NC(=O)CNC(=O)[C@H](C)NC(=O)[C@@H](N)CCCN=C(N)N)C(C)C)C(C)C)C(=O)O", "result": "≥ 79.7 µM"}
{"smilesString": "CC(C)C[C@H](NC(=O)[C@H](CC(C)C)NC(=O)[C@H](CCCCN)NC(=O)[C@H](CO)NC(=O)[C@H](CC(C)C)NC(=O)[C@H](C)NC(=O)[C@H](Cc1cnc[nH]1)NC(=O)[C@H](Cc1ccccc1)NC(=O)[C@H](CC(C)C)NC(=O)[C@H](C)NC(=O)CNC(=O)[C@H](CC(C)C)NC(=O)[C@@H](N)Cc1ccccc1)C(=O)O", "result": "≥ 64 µM"}
{"smilesString": "CC[C@H](C)[C@H](NC(=O)[C@@H]1CCCN1C(=O)[C@H](CC(C)C)NC(=O)[C@@H](N)CC(C)C)C(=O)N[C@H](C(=O)NCC(=O)N[C@@H](CC(N)=O)C(=O)N[C@@H](CC(C)C)C(=O)N[C@@H](CC(C)C)C(=O)N[C@@H](CCCCN)C(=O)N[C@@H](CO)C(=O)N[C@@H](CC(C)C)C(=O)N[C@@H](CC(C)C)C(=O)O)C(C)C", "result": "≥ 71.8 µM"}

----------
- System: Bacillus subtilis ATCC 6633

{"molecule": "CC(C)C[C@H](NC(=O)[C@@H]1CSSC[C@H](NC(=O)[C@H](C)NC(=O)[C@H](C)NC(=O)[C@@H](N)CC(=O)O)C(=O)N[C@@H](C)C(=O)N[C@@H](C)C(=O)N[C@@H](Cc2cnc[nH]2)C(=O)N1)C(=O)N[C@@H](Cc1ccccc1)C(=O)N[C@@H](CCCN=C(N)N)C(N)=O [DAACAAHCLFR]", "reportedRelation": "≥", "MIC [µM]": 84.9}
{"molecule": "CC[C@H](C)[C@H](NC(=O)[C@H](CCCCN)NC(=O)[C@H](CCC(=O)O)NC(=O)[C@H](Cc1c[nH]c2ccccc12)NC(=O)[C@H](Cc1ccccc1)NC(=O)[C@H](CCCCN)NC(=O)CNC(=O)[C@H](CC(C)C)NC(=O)[C@H](C)N)C(=O)N[C@@H](CCCCN)C(=O)N[C@@H](CO)C(=O)N[C@@H](CC(C)C)C(=O)N[C@@H](Cc1ccccc1)C(N)=O", "reportedRelation": "=", "MIC [µM]": 0.78}
{"molecule": "CC[C@H](C)[C@H](NC(=O)[C@@H]1CCCN1C(=O)[C@H](CCCN=C(N)N)NC(=O)[C@@H]1CCCN1C(=O)[C@H](CCCN=C(N)N)NC(=O)[C@H](Cc1ccc(O)cc1)NC(=O)[C@H](CC(N)=O)NC(=O)[C@@H]1CCCN1C(=O)[C@H](CCCN=C(N)N)NC(=O)[C@@H]1CCCN1C(=O)[C@@H](N)CCCN=C(N)N)C(=O)N[C@@H](Cc1ccc(O)cc1)C(=O)N[C@@H](CCCN=C(N)N)C(=O)N1CCC[C@H]1C(N)=O", "reportedRelation": "=", "MIC [µM]": 1.06}
{"molecule": "CC[C@H](C)[C@H](N)C(=O)N[C@@H](CC(N)=O)C(=O)N[C@@H](Cc1c[nH]c2ccccc12)C(=O)N[C@@H](CCCCN)C(=O)N[C@@H](CCCCN)C(=O)N[C@H](C(=O)N[C@@H](C)C(=O)N[C@@H](CCC(=O)O)C(=O)N[C@H](C(=O)NCC(=O)NCC(=O)N[C@@H](CCCCN)C(=O)N[C@H](C(=O)N[C@@H](CC(C)C)C(=O)N[C@@H](CO)C(=O)N[C@@H](CO)C(=O)N[C@@H](CC(C)C)C(N)=O)[C@@H](C)CC)C(C)C)[C@@H](C)CC", "reportedRelation": "=", "MIC [µM]": 1.08}
{"molecule": "CC[C@H](C)[C@H](NC(=O)[C@@H](NC(=O)[C@@H](N)Cc1ccccc1)[C@@H](C)CC)C(=O)N[C@H](C(=O)NCC(=O)N[C@@H](CC(C)C)C(=O)N[C@H](C(=O)N[C@@H](CCCN=C(N)N)C(=O)NCC(=O)N[C@@H](CC(C)C)C(=O)N[C@H](C(=O)N[C@@H](CCCCN)C(=O)N[C@@H](CC(C)C)C(=O)N[C@@H](Cc1ccccc1)C(N)=O)[C@@H](C)O)C(C)C)[C@@H](C)O", "reportedRelation": "=", "MIC [µM]": 15.8}
{"molecule": "CC[C@H](C)[C@H](N)C(=O)N[C@@H](CC(C)C)C(=O)NCC(=O)N1CCC[C@H]1C(=O)N[C@H](C(=O)N[C@@H](CC(C)C)C(=O)NCC(=O)N[C@@H](CC(C)C)C(=O)N[C@H](C(=O)N[C@@H](CO)C(=O)N[C@@H](CC(N)=O)C(=O)N[C@H](C(=O)N[C@@H](CC(C)C)C(=O)N[C@@H](CC(=O)O)C(=O)N[C@@H](CC(=O)O)C(=O)N[C@H](C(=O)N[C@@H](CC(C)C)C(=O)NCC(=O)N[C@H](C(=O)N[C@@H](CC(C)C)C(N)=O)[C@@H](C)CC)C(C)C)[C@@H](C)O)C(C)C)C(C)C", "reportedRelation": "≥", "MIC [µM]": 49.5}
{"molecule": "CC[C@H](C)[C@H](NC(=O)[C@H](CC(C)C)NC(=O)[C@H](CO)NC(=O)[C@H](CC(C)C)NC(=O)[C@H](CC(C)C)NC(=O)[C@@H](N)CO)C(=O)N[C@@H](CCCN=C(N)N)C(=O)N[C@@H](CCCCN)C(=O)N[C@@H](CC(C)C)C(=O)N[C@H](C(=O)N[C@H](C(N)=O)[C@@H](C)O)[C@@H](C)CC", "reportedRelation": "=", "MIC [µM]": 6.2}
{"molecule": "CC[C@H](C)[C@H](N)C(=O)N[C@@H](CCCCN)C(=O)N[C@@H](Cc1c[nH]c2ccccc12)C(=O)N[C@@H](C)C(=O)NCC(=O)N[C@@H](CCCCN)C(=O)N[C@@H](CC(C)C)C(=O)N[C@@H](Cc1ccccc1)C(=O)N[C@@H](CCCCN)C(=O)N[C@@H](CC(C)C)C(=O)N[C@@H](Cc1ccccc1)C(=O)N[C@@H](CCCCN)C(N)=O", "reportedRelation": "=", "MIC [µM]": 5.41}
{"molecule": "CC[C@H](C)[C@H](N)C(=O)N[C@@H](CC(C)C)C(=O)NCC(=O)N[C@@H](CCCCN)C(=O)N[C@H](C(=O)N[C@@H](Cc1c[nH]c2ccccc12)C(=O)N[C@@H](CCC(=O)O)C(=O)N1CCC[C@H]1C(=O)N[C@H](C(=O)N[C@@H](CCCCN)C(=O)N[C@@H](CO)C(=O)N[C@@H](CC(C)C)C(=O)N[C@@H](Cc1ccccc1)C(N)=O)[C@@H](C)CC)[C@@H](C)CC [ILGKIWEPIKSLF]", "reportedRelation": "=", "MIC [µM]": 25}
{"molecule": "CC[C@H](C)[C@H](N)C(=O)N[C@@H](CC(C)C)C(=O)NCC(=O)N1CCC[C@H]1C(=O)N[C@H](C(=O)N[C@H](C(=O)N[C@@H](CCCCN)C(=O)N[C@H](C(=O)N[C@H](C(=O)NCC(=O)NCC(=O)N[C@H](C(=O)N[C@H](C(=O)NCC(=O)NCC(=O)N[C@@H](CC(C)C)C(=O)N[C@@H](CC(C)C)C(=O)N[C@@H](CCCCN)C(=O)N[C@@H](CC(N)=O)C(=O)N[C@@H](CC(C)C)C(N)=O)[C@@H](C)CC)C(C)C)[C@@H](C)CC)[C@@H](C)O)[C@@H](C)CC)C(C)C", "reportedRelation": "=", "MIC [µM]": 9.52}
